# Tested on: xylene-induced ear swelling
# Method Description: Xylene-induced mouse ear swelling
# Type: in vivo
# Particulars: Kunming mice, dose 8 mg/kg, injected once a day for 5 days; right minus left ear piece weight 2 h after xylene
Marks after values point to notes of the source that are not given here. Peptide text beside a SMILES is read from it. * marks the point of attachment. X58 = O=C1C=CC(=O)N1c1cccc(CCCCCCCCCCCC(=O)*)c1; X64 = O=C1C=CC(=O)N1c1cccc(CCCCCCCCCC(=O)*)c1; X59 = O=C1C=CC(=O)N1c1cccc(CCCCCCCCC(=O)*)c1; X60 = O=C1C=CC(=O)N1c1ccccc1CCCCCCCCCC(=O)*; X66 = O=C1C=CC(=O)N1c1cccc(CCCCCCCC(=O)*)c1; X54 = O=C1C=CC(=O)N1c1cccc(CCCCCCC(=O)*)c1; X55 = O=C1C=CC(=O)N1c1ccccc1CCCCCCCCC(=O)*; X52 = O=C1C=CC(=O)N1c1ccccc1CCCCCCCC(=O)*; X49 = O=C1C=CC(=O)N1c1ccccc1CCCCCC(=O)*; X61 = O=C1C=CC(=O)N1c1cccc(CCCC(=O)*)c1; X75 = O=C1C=CC(=O)N1c1cccc(CC(=O)*)c1
Recorded Metric: Swelling degree (mg)

| Compound | Target System | Recorded Metric | Result Value |
| --- | --- | --- | --- |
| C[C@H](NC(=O)CNC(=O)[C@H](CCCNC(=N)N)NC(=O)CCCCCCCc1ccccc1N1C(=O)C=CC1=O)C(=O)N[C@@H](CC(=O)O)C(=O)N[C@@H](CCCNC(=N)N)C(=O)N[C@@H](C)C(=O)NCC(=O)NCC(=O)NCC(=O)NCC(=O)N[C@@H](CCCNC(=N)N)C(=O)NCC(=O)N[C@@H](CC(=O)O)C(=O)O [X19] (X52-RGADRAGGGGRGD-OH) | xylene-induced ear swelling | Swelling degree (mg) | 3.8 ± 0.03** mg |
| C[C@H](NC(=O)CNC(=O)[C@H](CCCNC(=N)N)NC(=O)CCCCCCCCCc1cccc(N2C(=O)C=CC2=O)c1)C(=O)N[C@@H](CC(=O)O)C(=O)N[C@@H](CCCNC(=N)N)C(=O)N[C@@H](C)C(=O)NCC(=O)NCC(=O)NCC(=O)NCC(=O)N[C@@H](CCCNC(=N)N)C(=O)NCC(=O)N[C@@H](CC(=O)O)C(=O)O [X33] (X64-RGADRAGGGGRGD-OH) | xylene-induced ear swelling | Swelling degree (mg) | 4.41 ± 0.9** mg |
| C[C@H](NC(=O)CNC(=O)[C@H](CCCNC(=N)N)NC(=O)CCCCCCCCc1cccc(N2C(=O)C=CC2=O)c1)C(=O)N[C@@H](CC(=O)O)C(=O)N[C@@H](CCCNC(=N)N)C(=O)N[C@@H](C)C(=O)NCC(=O)NCC(=O)NCC(=O)NCC(=O)N[C@@H](CCCNC(=N)N)C(=O)NCC(=O)N[C@@H](CC(=O)O)C(=O)O [X32] (X59-RGADRAGGGGRGD-OH) | xylene-induced ear swelling | Swelling degree (mg) | 3.69 ± 0.56** mg |
| C[C@H](NC(=O)CNC(=O)[C@H](CCCNC(=N)N)NC(=O)Cc1cccc(N2C(=O)C=CC2=O)c1)C(=O)N[C@@H](CC(=O)O)C(=O)N[C@@H](CCCNC(=N)N)C(=O)N[C@@H](C)C(=O)NCC(=O)NCC(=O)NCC(=O)NCC(=O)N[C@@H](CCCNC(=N)N)C(=O)NCC(=O)N[C@@H](CC(=O)O)C(=O)O [X25] (X75-RGADRAGGGGRGD-OH) | xylene-induced ear swelling | Swelling degree (mg) | 3.3 ± 0.06** mg |
| C[C@H](NC(=O)CNC(=O)[C@H](CCCNC(=N)N)NC(=O)CCCCCCCc1cccc(N2C(=O)C=CC2=O)c1)C(=O)N[C@@H](CC(=O)O)C(=O)N[C@@H](CCCNC(=N)N)C(=O)N[C@@H](C)C(=O)NCC(=O)NCC(=O)NCC(=O)NCC(=O)N[C@@H](CCCNC(=N)N)C(=O)NCC(=O)N[C@@H](CC(=O)O)C(=O)O [X31] (X66-RGADRAGGGGRGD-OH) | xylene-induced ear swelling | Swelling degree (mg) | 5.18 ± 0.71** mg |
| C[C@H](NC(=O)CNC(=O)[C@H](CCCNC(=N)N)NC(=O)CCCc1cccc(N2C(=O)C=CC2=O)c1)C(=O)N[C@@H](CC(=O)O)C(=O)N[C@@H](CCCNC(=N)N)C(=O)N[C@@H](C)C(=O)NCC(=O)NCC(=O)NCC(=O)NCC(=O)N[C@@H](CCCNC(=N)N)C(=O)NCC(=O)N[C@@H](CC(=O)O)C(=O)O [X27] (X61-RGADRAGGGGRGD-OH) | xylene-induced ear swelling | Swelling degree (mg) | 3.13 ± 0.38* mg |
| C[C@H](NC(=O)CNC(=O)[C@H](CCCNC(=N)N)NC(=O)CCCCCCc1cccc(N2C(=O)C=CC2=O)c1)C(=O)N[C@@H](CC(=O)O)C(=O)N[C@@H](CCCNC(=N)N)C(=O)N[C@@H](C)C(=O)NCC(=O)NCC(=O)NCC(=O)NCC(=O)N[C@@H](CCCNC(=N)N)C(=O)NCC(=O)N[C@@H](CC(=O)O)C(=O)O [X30] (X54-RGADRAGGGGRGD-OH) | xylene-induced ear swelling | Swelling degree (mg) | 3.77 ± 0.38** mg |
| C[C@H](NC(=O)CNC(=O)[C@H](CCCNC(=N)N)NC(=O)CCCCCCCCc1ccccc1N1C(=O)C=CC1=O)C(=O)N[C@@H](CC(=O)O)C(=O)N[C@@H](CCCNC(=N)N)C(=O)N[C@@H](C)C(=O)NCC(=O)NCC(=O)NCC(=O)NCC(=O)N[C@@H](CCCNC(=N)N)C(=O)NCC(=O)N[C@@H](CC(=O)O)C(=O)O [X20] (X55-RGADRAGGGGRGD-OH) | xylene-induced ear swelling | Swelling degree (mg) | 3.47 ± 0.07** mg |
| C[C@H](NC(=O)CNC(=O)[C@H](CCCNC(=N)N)NC(=O)CCCCCCCCCCCc1cccc(N2C(=O)C=CC2=O)c1)C(=O)N[C@@H](CC(=O)O)C(=O)N[C@@H](CCCNC(=N)N)C(=O)N[C@@H](C)C(=O)NCC(=O)NCC(=O)NCC(=O)NCC(=O)N[C@@H](CCCNC(=N)N)C(=O)NCC(=O)N[C@@H](CC(=O)O)C(=O)O [X35] (X58-RGADRAGGGGRGD-OH) | xylene-induced ear swelling | Swelling degree (mg) | 3.48 ± 0.28** mg |
| C[C@H](NC(=O)CNC(=O)[C@H](CCCNC(=N)N)NC(=O)CCCCCc1ccccc1N1C(=O)C=CC1=O)C(=O)N[C@@H](CC(=O)O)C(=O)N[C@@H](CCCNC(=N)N)C(=O)N[C@@H](C)C(=O)NCC(=O)NCC(=O)NCC(=O)NCC(=O)N[C@@H](CCCNC(=N)N)C(=O)NCC(=O)N[C@@H](CC(=O)O)C(=O)O [X17] (X49-RGADRAGGGGRGD-OH) | xylene-induced ear swelling | Swelling degree (mg) | 3.53 ± 0.1** mg |
| C[C@H](NC(=O)CNC(=O)[C@H](CCCNC(=N)N)NC(=O)CCCCCCCCCc1ccccc1N1C(=O)C=CC1=O)C(=O)N[C@@H](CC(=O)O)C(=O)N[C@@H](CCCNC(=N)N)C(=O)N[C@@H](C)C(=O)NCC(=O)NCC(=O)NCC(=O)NCC(=O)N[C@@H](CCCNC(=N)N)C(=O)NCC(=O)N[C@@H](CC(=O)O)C(=O)O [X21] (X60-RGADRAGGGGRGD-OH) | xylene-induced ear swelling | Swelling degree (mg) | 3.15 ± 0.42** mg |

* * *

# Method Description: Half-lives and pharmacokinetic parameters of polypeptides vs HM-1
# Particulars: in vivo, T1/2β (half-life)
Peptide text beside a SMILES is read from it. * marks the point of attachment. X65 = O=C1C=CC(=O)N1c1cccc(CCCCCCCCCCCCC(=O)*)c1; X20 = O=C1C=CC(=O)N1CCOCCOCCOCCOCCOCCCC(=O)*; X15 = O=C1C=CC(=O)N1CCOCCOCCOCCC(=O)*

| Compound | half-life [h] |
| --- | --- |
| C[C@H](NC(=O)CNC(=O)[C@H](CCCNC(=N)N)NC(=O)CCCOCCOCCOCCOCCOCCN1C(=O)C=CC1=O)C(=O)N[C@@H](CC(=O)O)C(=O)N[C@@H](CCCNC(=N)N)C(=O)N[C@@H](C)C(=O)NCC(=O)NCC(=O)NCC(=O)NCC(=O)N[C@@H](CCCNC(=N)N)C(=O)NCC(=O)N[C@@H](CC(=O)O)C(=O)O [X79] (X20-RGADRAGGGGRGD-OH) | 37.9 |
| C[C@H](NC(=O)CNC(=O)[C@H](CCCNC(=N)N)NC(=O)CCCCCCCCCCCCc1cccc(N2C(=O)C=CC2=O)c1)C(=O)N[C@@H](CC(=O)O)C(=O)N[C@@H](CCCNC(=N)N)C(=O)N[C@@H](C)C(=O)NCC(=O)NCC(=O)NCC(=O)NCC(=O)N[C@@H](CCCNC(=N)N)C(=O)NCC(=O)N[C@@H](CC(=O)O)C(=O)O [X36] (X65-RGADRAGGGGRGD-OH) | 34.9 |
| C[C@H](NC(=O)CNC(=O)[C@H](CCCNC(=N)N)NC(=O)CCOCCOCCOCCN1C(=O)C=CC1=O)C(=O)N[C@@H](CC(=O)O)C(=O)N[C@@H](CCCNC(=N)N)C(=O)N[C@@H](C)C(=O)NCC(=O)NCC(=O)NCC(=O)NCC(=O)N[C@@H](CCCNC(=N)N)C(=O)NCC(=O)N[C@@H](CC(=O)O)C(=O)O [X64] (X15-RGADRAGGGGRGD-OH) | 40 |

Reference for the values: patent US20200270309A1
